Cited source for all entries: patent US4994376A

System: B. loescheii
Assay type: biochemical
Details: strain VPI4196; β-naphthylamine liberated after 60 minutes, 37° C.
Peptide text beside a SMILES is read from it. * marks the point of attachment. βNA = c1ccc2cc(N*)ccc2c1
Entries annotated with measured Aminopeptidase activity

compound | target_entity | Aminopeptidase activity (nmol)
CSCCC(N)C(=O)Nc1ccc2ccccc2c1 (racemic) | B. loescheii | 0
NC(=O)[C@@H](N)CCC(=O)O | B. loescheii | 0
CC(C)C[C@H](N)C(=O)NCC(=O)O [Leu-Gly, Leucyl-glycine] (H-Leu-Gly-OH) | B. loescheii | 58
C[C@H](N)C(=O)N[C@@H](C)C(=O)N[C@@H](Cc1ccccc1)C(=O)Nc1ccc2ccccc2c1 [Ala-Ala-Phe] (H-Ala-Ala-Phe-βNA) | B. loescheii | 0
Cl.N=C(N)NCCC[C@H](NC(=O)CNC(=O)CNC(=O)OCc1ccccc1)C(=O)Nc1ccc2ccccc2c1 | B. loescheii | 0
CC(C)C[C@H](NC(=O)[C@@H]1CCCN1C(=O)CN)C(=O)Nc1ccc2ccccc2c1 [Gly-Pro-Leu] (H-Gly-Pro-Leu-βNA) | B. loescheii | 1
